- Target under test: HSA (Homo sapiens, UniProt P02768)
- Sequence (P02768 25-609): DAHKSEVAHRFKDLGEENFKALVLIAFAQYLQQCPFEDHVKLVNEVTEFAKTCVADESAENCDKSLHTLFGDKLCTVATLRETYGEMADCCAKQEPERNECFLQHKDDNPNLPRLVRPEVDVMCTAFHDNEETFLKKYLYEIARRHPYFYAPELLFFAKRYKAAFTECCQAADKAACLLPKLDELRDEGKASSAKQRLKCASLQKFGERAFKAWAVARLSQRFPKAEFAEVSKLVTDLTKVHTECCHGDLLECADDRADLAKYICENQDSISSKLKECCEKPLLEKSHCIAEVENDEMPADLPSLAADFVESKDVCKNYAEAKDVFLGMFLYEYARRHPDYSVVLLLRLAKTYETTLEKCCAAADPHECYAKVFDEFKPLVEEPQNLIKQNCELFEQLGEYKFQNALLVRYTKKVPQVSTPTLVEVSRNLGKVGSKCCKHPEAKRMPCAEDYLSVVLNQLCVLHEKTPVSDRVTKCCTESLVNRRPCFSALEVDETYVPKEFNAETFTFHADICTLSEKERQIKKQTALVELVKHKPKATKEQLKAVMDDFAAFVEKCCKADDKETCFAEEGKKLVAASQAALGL
- Method summary: HSA affinity determination on immobilized-HSA microcolumns
- Conditions used: HSA microcolumn, phosphate buffer pH 7.4, room temperature
Overview of recorded Kd for various compounds
Recorded metric: Kd (nM)

Compound	Recorded metric	Modifier	Endpoint result
O=C(O)CC[C@H](NC(=O)N[C@@H](CCC(=O)N[C@@H](CCCCNC(=O)CCCc1ccc(I)cc1)C(=O)O)C(=O)O)C(=O)O [RPS-025]	Kd	<	1000
O=C(O)CC[C@H](NC(=O)N[C@@H](CCCCNC(=O)Nc1ccc(I)cc1)C(=O)O)C(=O)O [RPS-001, reference compound]	Kd	=	19200
O=C(O)CCC(NC(=O)NC(CCCCNC(=O)CCCc1ccc([131I])cc1)C(=O)O)C(=O)O (centres unmarked) [^131I-RPS-005]	Kd	=	890
O=C(O)CC[C@H](NC(=O)N[C@@H](CCCCNC(=O)CCc1ccc(I)cc1)C(=O)O)C(=O)O [RPS-026]	Kd	=	26600
O=C(O)CC[C@H](NC(=O)N[C@@H](CCCCNC(=O)CCCc1ccc(I)cc1)C(=O)O)C(=O)O [RPS-005]	Kd	=	980
